system: HCV luciferase-bearing mutant replicon, NS3 A156S, in cured GS4.1 cells; experiment: Luciferase replicon transient transfection assay, A156S mutant replicon; assay type: cell-based; conditions: Hepatitis C virus, 96 h, read-out: EC50(nm), A156S replicon
pEC50: −log10 of the molar value.
assay_metric: pEC50

stdin: Assign pEC50 to the following record: COc1ccc2c(O[C@H]3CC[C@H]4C(=O)N(C)CCCC/C=C\[C@@H]5C[C@@]5(C(=O)NS(=O)(=O)C5(C)CC5)NC(=O)[C@@H]4C3)cc(-c3nc(C(F)(F)F)cs3)nc2c1C
stdout: 9.46 to 10.00

###

biological target: HCV NS3-NS4A protease 1b (Hepatitis C virus genotype 1b, UniProt Q9WMX2)
Sequence (Q9WMX2 1027-1208): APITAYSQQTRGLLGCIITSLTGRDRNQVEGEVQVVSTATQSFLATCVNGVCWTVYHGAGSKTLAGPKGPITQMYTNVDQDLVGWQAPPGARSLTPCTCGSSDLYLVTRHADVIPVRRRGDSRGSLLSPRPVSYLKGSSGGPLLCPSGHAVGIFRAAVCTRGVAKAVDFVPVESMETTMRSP
assay_metric: IC50

stdin: # return recorded IC50 for entry COc1ccc2c(O[C@H]3CC[C@H]4C(=O)N(C)CCCC/C=C\[C@@H]5C[C@@]5(C(=O)NS(=O)(=O)C5(C)CC5)NC(=O)[C@@H]4C3)cc(-c3nc(C(F)(F)F)cs3)nc2c1C [Compound 51]
stdout: < 1 µM

###

Test system: HCV luciferase-bearing mutant replicon, NS3 R155K, in cured GS4.1 cells
Assay: Luciferase replicon transient transfection assay, R155K mutant replicon
Format: cell-based
Conditions: Hepatitis C virus, 96 h, read-out: EC50(nm), R155K replicon
Procedure: The luciferase replicon transient transfection assay measures the ability of a test compound to inhibit the replication of a transiently-transfected HCV luciferase-bearing wild-type or mutant replicon in cured human hepatoma cells (cured GS4.1). […] The inhibition of HCV replication was measured by quantification of luciferase protein expression. […] EC50 values were calculated from dose response curves from the resulting best-fit equations determined by Microsoft Excel and XLfit 4.1 software.
pEC50: −log10 of the molar value.
assay_metric: pEC50

stdin: Input COc1ccc2c(O[C@H]3CC[C@H]4C(=O)N(C)CCCC/C=C\[C@@H]5C[C@@]5(C(=O)NS(=O)(=O)C5(C)CC5)NC(=O)[C@@H]4C3)cc(-c3nc(C(F)(F)F)cs3)nc2c1C , output reported pEC50.
stdout: 7.82 to 8.30

###

system: HCV Con1 subgenomic replicon in Huh-7 cells (GS4.1 cells); test: HCV replicon assay (NS4A ELISA, GS4.1 cells); format: cell-based; conditions: Hepatitis C virus, 72 hr
pEC50: −log10 of the molar value.
assay_metric: pEC50

stdin: # lookup: HCV Con1 subgenomic replicon in Huh-7 cells (GS4.1 cells) pEC50, key = COc1ccc2c(O[C@H]3CC[C@H]4C(=O)N(C)CCCC/C=C\[C@@H]5C[C@@]5(C(=O)NS(=O)(=O)C5(C)CC5)NC(=O)[C@@H]4C3)cc(-c3nc(C(F)(F)F)cs3)nc2c1C [Compound 51]
stdout: > 6.00

###

target: CYP2C19 (Homo sapiens, UniProt P33261); construct: purchased BD Bioscience; test: In vitro CYP450 inhibition screen, luminogenic assay, CYP2C19; type: in vitro ADME; conditions: probe substrate Luciferin-H EGE, average of two independent experiments, read-out: IC50 (μM) or % Inhibition at 20 μM, CYP450 2C19
Sequence (P33261 whole entry): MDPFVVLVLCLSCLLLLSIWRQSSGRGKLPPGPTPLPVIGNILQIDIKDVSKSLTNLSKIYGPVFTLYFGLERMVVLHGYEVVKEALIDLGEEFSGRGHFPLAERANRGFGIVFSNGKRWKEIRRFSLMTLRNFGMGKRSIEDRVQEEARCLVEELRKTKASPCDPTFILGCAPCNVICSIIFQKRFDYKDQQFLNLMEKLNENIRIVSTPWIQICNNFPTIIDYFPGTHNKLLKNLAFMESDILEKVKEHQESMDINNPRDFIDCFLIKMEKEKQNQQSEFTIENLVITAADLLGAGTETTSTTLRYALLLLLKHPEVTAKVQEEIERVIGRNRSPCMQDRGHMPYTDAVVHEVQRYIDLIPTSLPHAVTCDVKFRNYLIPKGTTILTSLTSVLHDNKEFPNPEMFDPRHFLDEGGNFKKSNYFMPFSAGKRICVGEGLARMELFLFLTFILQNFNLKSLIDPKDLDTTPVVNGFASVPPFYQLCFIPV
Measured IC50 of individual entries

smiles_entry | result
COc1ccc2c(O[C@H]3CC[C@H]4C(=O)N(C)CCCC/C=C\[C@@H]5C[C@@]5(C(=O)NS(=O)(=O)C5(C)CC5)NC(=O)[C@@H]4C3)cc(-c3nc(C(F)(F)F)cs3)nc2c1C | 9 to 15 µM

Alright, here's another compound for you.
stdin: Name the recorded IC50 of C#Cc1csc(-c2cc(O[C@H]3CC[C@H]4C(=O)N(C)CCCC/C=C\[C@@H]5C[C@@]5(C(=O)NS(=O)(=O)C5(C)CC5)NC(=O)[C@@H]4C3)c3ccc(OC)c(C)c3n2)n1 , assay system CYP2C19 (Homo sapiens, UniProt P33261).
stdout: 9 to 15 µM

The measurements presented in this section are drawn from patent US9284307B2.
